Tested on: M14 melanoma
Assay: NCI tumour cell line growth inhibition, 48 h; in the data active means GI50 below about 0.43 µM; inactive means the rest
Assign a class; possible classes are active, inactive

A selection of reference data follows.
[
  {
    "MOLECULE": "CCCCN(CCCC)CC(C)(C)C(O)c1ccc(OC)c2ccccc12 (configuration not stated)",
    "LABEL": "inactive"
  },
  {
    "MOLECULE": "C[C@@]1(c2ncncc2F)NC(=O)c2cc(-c3cn[nH]c3)ccc21",
    "LABEL": "inactive"
  },
  {
    "MOLECULE": "COc1ccc(C2C(c3ccccc3)C(=O)N2c2cc(OC)c(OC)c(OC)c2)cc1I (configuration not stated)",
    "LABEL": "active"
  },
  {
    "MOLECULE": "CN(C)CCOc1nc2c3cccnc3cc(-c3cccc(Cl)c3)c2c2ncccc12",
    "LABEL": "inactive"
  },
  {
    "MOLECULE": "CCCC(=O)NC(c1ccc2c(c1)OCO2)c1ccc2cccnc2c1O (configuration not stated)",
    "LABEL": "inactive"
  }
]

QUERY: Outcome logged for `O=C(Nc1cccc2cccnc12)c1ccc(N2C(=O)[C@@H]3[C@H](C2=O)[C@@H]2C=C[C@H]3C2)cc1` in this assay:
RESULT: inactive

QUERY: Outcome logged for C[C@H]1CCC/C=C/[C@@H]2C[C@H](O)C[C@H]2[C@H](O)[C@@H](S(=O)CCN)CC(=O)O1 (some centres not stated) in this assay:
RESULT: active

QUERY: Outcome logged for `CC(F)(F)c1cc(F)ccc1-c1sc2cc(O)ccc2c1Oc1ccc(/C=C/C(=O)O)cc1` in this assay:
RESULT: inactive

QUERY: Outcome logged for `COc1cc(-c2nn(C(=O)NS(=O)(=O)c3ccc(C)cc3)cc2-c2ccncc2)ccc1Cl` in this assay:
RESULT: inactive
